From: patent US20240376097A1

Below is a list of entries, each paired with its recorded IC50 value.
system: RS4;11 (BCL-2 dependent acute lymphoblastic leukemia cell line); experiment: RS4;11 Cell Proliferation Assay; type: cell-based; conditions: Homo sapiens, RS4-11, RS4;11 cells, read-out: Cellular proliferation assay (IC50, nM) RS4
Please give a number only; it is taken to be in nM.

Example cases with answers are listed next.
molecule	IC50 [nM]
COc1cc(CN2CCN(C3CC4(CCN(c5ccc(C(=O)NS(=O)(=O)c6ccc(NC[C@H]7CC[C@](C)(O)CC7)c([N+](=O)[O-])c6)c(Oc6cnc7[nH]ccc7c6)c5)CC4)C3)C(c3ccccc3C(C)C)C2)ccc1F (stereo partly shown)	0.24
COc1cc(CN2CCN(C3CC4(C3)CN(c3ccc(C(=O)NS(=O)(=O)c5ccc(NC[C@H]6CC[C@](C)(O)CC6)c([N+](=O)[O-])c5)c(Oc5cnc6[nH]ccc6c5)c3)C4)[C@H](c3ccccc3C(C)C)C2)ccc1C(C)C	0.16
COc1cc(CN2CCN(C3CC4(C3)CN(c3ccc(C(=O)NS(=O)(=O)c5ccc(NC[C@H]6CC[C@](C)(O)CC6)c([N+](=O)[O-])c5)c(Oc5cnc6[nH]ccc6c5)c3)C4)[C@H](c3ccccc3C(C)C)C2)ccc1C1CCC1	0.28
C#Cc1ccc(CN2CCN(C3CC4(CCN(c5ccc(C(=O)NS(=O)(=O)c6ccc(NC[C@H]7CC[C@](C)(O)CC7)c([N+](=O)[O-])c6)c(Oc6cnc7[nH]ccc7c6)c5)CC4)C3)C(c3ccccc3C(C)C)C2)cc1 (stereo partly shown)	0.795
CC(C)c1ccccc1C1CN(C2CCC2)CCN1C1CC2(CCN(c3ccc(C(=O)NS(=O)(=O)c4ccc(NC[C@H]5CC[C@](C)(O)CC5)c([N+](=O)[O-])c4)c(Oc4cnc5[nH]ccc5c4)c3)CC2)C1 (stereo partly shown)	0.58
CC(C)c1ccccc1C1CN(Cc2ccc3c(c2)CCCC3)CCN1C1CC2(CCN(c3ccc(C(=O)NS(=O)(=O)c4ccc(NC[C@H]5CC[C@](C)(O)CC5)c([N+](=O)[O-])c4)c(Oc4cnc5[nH]ccc5c4)c3)CC2)C1 (stereo partly shown)	0.79
COc1ccc(CN2CCN(C3CC4(CCN(c5ccc(C(=O)NS(=O)(=O)c6ccc(NC[C@H]7CC[C@](C)(O)CC7)c([N+](=O)[O-])c6)c(Oc6cnc7[nH]ccc7c6)c5)CC4)C3)C(c3ccccc3C(C)C)C2)cc1Cl (stereo partly shown)	0.36
COc1ccc(CN2CCN(C3CC4(CCN(c5ccc(C(=O)NS(=O)(=O)c6ccc(OCC7CCC(C)(O)CC7)c([N+](=O)[O-])c6)c(Oc6cnc7[nH]ccc7c6)c5)CC4)C3)[C@H](c3ccccc3C(C)C)C2)cc1 (stereo partly shown)	0.16

Problem: Given the entry COCCN1CCN(C2CC3(CCN(c4ccc(C(=O)NS(=O)(=O)c5ccc(NC[C@H]6CC[C@](C)(O)CC6)c([N+](=O)[O-])c5)c(Oc5cnc6[nH]ccc6c5)c4)CC3)C2)[C@@H](c2ccccc2C(C)C)C1 (single isomer, unassigned) [Example 13a] , report its measured IC50.
Solution: 10.5

----------
target: Recombinant human Bcl-2 protein (Homo sapiens (Human), UniProt P10415); assay: Bcl-2 TR-FRET Assay; type: binding; settings: Bcl-2 wild type, TR-FRET; read-out: Biochemical assay (IC50, nM) Bcl-2 WT
Sequence (P10415 whole entry): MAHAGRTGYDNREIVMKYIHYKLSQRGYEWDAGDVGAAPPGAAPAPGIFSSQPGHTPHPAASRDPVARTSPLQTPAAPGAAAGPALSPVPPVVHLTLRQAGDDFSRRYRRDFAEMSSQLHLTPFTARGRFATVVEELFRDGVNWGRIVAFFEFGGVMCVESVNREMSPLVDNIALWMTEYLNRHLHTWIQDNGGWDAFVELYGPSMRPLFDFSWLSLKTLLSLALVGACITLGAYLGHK
Below is a list of entries, each paired with its recorded log10 IC50 value.
Each number you see is log10 of IC50, and the unit inside the log is nM.

Example cases with answers are listed next.
molecule	parameterMeasured	dataValue
CC(C)c1ccccc1C1CN(Cc2cccc3c2N(C)C(=O)CO3)CCN1C1CC2(CCN(c3ccc(C(=O)NS(=O)(=O)c4ccc(NC[C@H]5CC[C@](C)(O)CC5)c([N+](=O)[O-])c4)c(Oc4cnc5[nH]ccc5c4)c3)CC2)C1 (some centres unmarked)	log10 IC50	-0.72
CC(C)c1ccccc1C1CN(Cc2cccc3c2CCCO3)CCN1C1CC2(CCN(c3ccc(C(=O)NS(=O)(=O)c4ccc(NC[C@H]5CC[C@](C)(O)CC5)c([N+](=O)[O-])c4)c(Oc4cnc5[nH]ccc5c4)c3)CC2)C1 (some centres unmarked)	log10 IC50	-0.24
COc1cc(CN2CCN(C3CC4(C3)CN(c3ccc(C(=O)NS(=O)(=O)c5ccc(NC[C@H]6CC[C@](C)(O)CC6)c([N+](=O)[O-])c5)c(Oc5cnc6[nH]cc(F)c6c5)c3)C4)[C@H](c3ccccc3C(C)C)C2)ccc1NC(C)C	log10 IC50	-0.64
CC(C)c1ccccc1[C@@H]1CN(CC2C3CC4CC(C3)CC2C4)CCN1C1CC2(CCN(c3ccc(C(=O)NS(=O)(=O)c4ccc(NC[C@H]5CC[C@](C)(O)CC5)c([N+](=O)[O-])c4)c(Oc4cnc5[nH]ccc5c4)c3)CC2)C1 (some centres unmarked)	log10 IC50	-0.04
CC(C)c1ccccc1C1CN(C(=O)c2ccccc2)CCN1C1CC2(CCN(c3ccc(C(=O)NS(=O)(=O)c4ccc(NC[C@H]5CC[C@](C)(O)CC5)c([N+](=O)[O-])c4)c(Oc4cnc5[nH]ccc5c4)c3)CC2)C1 (some centres unmarked)	log10 IC50	-1.24

Problem: Given the entry COc1cc(CN2CCN(C3CC4(C3)CN(c3ccc(C(=O)NS(=O)(=O)c5ccc(NC[C@H]6CC[C@](C)(O)CC6)c([N+](=O)[O-])c5)c(Oc5cnc6[nH]cc(F)c6c5)c3)C4)[C@H](c3ccccc3C(C)C)C2)cc2cc(C)oc12 , report its measured log10 IC50.
Solution: -0.23

Problem: Given the entry CC(C)c1ccccc1C1CN(Cc2cccc3c2CCCC3)CCN1C1CC2(CCN(c3ccc(C(=O)NS(=O)(=O)c4ccc(NCC5CCOCC5)c([N+](=O)[O-])c4)c(Oc4cnc5[nH]ccc5c4)c3)CC2)C1 (centres unmarked) , report its measured log10 IC50.
Solution: 0.43

Problem: Given the entry COc1ccc(CN2CCN(C3CC4(CCN(c5ccc(C(=O)NS(=O)(=O)c6ccc(NC[C@H]7CC[C@](C)(O)CC7)c([N+](=O)[O-])c6)c(Oc6cnc7[nH]ccc7c6)c5)CC4)C3)[C@@H](c3ccccc3C(C)C)C2)cc1OC [Example 81b] , report its measured log10 IC50.
Solution: -1.13
